# melting point per record follows

Previously resolved entries follow.
Molecule | Observed Result
CCOP(=O)(OCC)C(N/N=C1\C(=O)Nc2ccccc21)c1ccc([N+](=O)[O-])cc1 (centres unmarked) [4m] | 172 to 174 °C
CCOP(=O)(OCC)C(NN=C1C(=O)Nc2ccccc21)c1ccc(O)cc1 (centres unmarked) [4f] | 140 to 142 °C
CCOP(=O)(OCC)C(N/N=C1\C(=O)Nc2ccccc21)c1scnc1C (centres unmarked) [4n] | 188 to 190 °C
CCOP(=O)(OCC)C(N/N=C1\C(=O)Nc2ccccc21)c1ccccc1O (centres unmarked) [4k] | 152 to 154 °C

Please find the next molecule below.
Tell me the measured melting point of CCOP(=O)(OCC)C(N/N=C1\C(=O)Nc2ccccc21)c1ccc(O)c(C)c1 (centres unmarked) [4l] , please. 190 to 192 °C
